In this section we review reported IC50 values for a set of molecules.
Tested on: human breast cancer cell MDA-MB-468
Test: MTT assay, growth of MDA-MB-468 cells
Assay type: cell-based
Settings: Homo sapiens, MDA-MB-468, 168 h; single agent, 7 days, MTT

Worked cases, IC50 given:
{"molecule": "C[C@@H]1CN(c2cccc3nc4ccc(-c5ccc(OCCCN(C)C)nc5)cn4c23)C[C@H](C)N1C [Example 8]", "assayed-target": "human breast cancer cell MDA-MB-468", "result": "25.1 nM"}
{"molecule": "CN(C)CCCOc1ccc(-c2ccc3nc4cccc(C5=CCOCC5)c4n3c2)cn1 [Example 1]", "assayed-target": "human breast cancer cell MDA-MB-468", "result": "2800 nM"}
{"molecule": "C[C@@H]1CN(c2cccc3nc4ccc(-c5ccc(N6CCC(N(C)C)CC6)c(C(F)(F)F)c5)cn4c23)C[C@H](C)N1C [Example 48]", "assayed-target": "human breast cancer cell MDA-MB-468", "result": "> 1000 nM"}

# input Query (molecule): C[C@@H]1CN(c2ccc(-c3cccc4nc5ccc(N6CCOCC6)cc5n34)cn2)C[C@H](C)N1C [Example 17] ; field requested: IC50
# output 2620 nM

# input Query (molecule): C[C@@H]1CN(c2cccc3nc4ccc(-c5ccc(N6CCC(N(C)C)CC6)c(Cl)c5)cn4c23)C[C@H](C)N1C [Example 47] ; field requested: IC50
# output 60.5 nM

====

Target: ATM enzyme (human) (Homo sapiens, UniProt Q13315)
Sequence (Q13315 whole entry): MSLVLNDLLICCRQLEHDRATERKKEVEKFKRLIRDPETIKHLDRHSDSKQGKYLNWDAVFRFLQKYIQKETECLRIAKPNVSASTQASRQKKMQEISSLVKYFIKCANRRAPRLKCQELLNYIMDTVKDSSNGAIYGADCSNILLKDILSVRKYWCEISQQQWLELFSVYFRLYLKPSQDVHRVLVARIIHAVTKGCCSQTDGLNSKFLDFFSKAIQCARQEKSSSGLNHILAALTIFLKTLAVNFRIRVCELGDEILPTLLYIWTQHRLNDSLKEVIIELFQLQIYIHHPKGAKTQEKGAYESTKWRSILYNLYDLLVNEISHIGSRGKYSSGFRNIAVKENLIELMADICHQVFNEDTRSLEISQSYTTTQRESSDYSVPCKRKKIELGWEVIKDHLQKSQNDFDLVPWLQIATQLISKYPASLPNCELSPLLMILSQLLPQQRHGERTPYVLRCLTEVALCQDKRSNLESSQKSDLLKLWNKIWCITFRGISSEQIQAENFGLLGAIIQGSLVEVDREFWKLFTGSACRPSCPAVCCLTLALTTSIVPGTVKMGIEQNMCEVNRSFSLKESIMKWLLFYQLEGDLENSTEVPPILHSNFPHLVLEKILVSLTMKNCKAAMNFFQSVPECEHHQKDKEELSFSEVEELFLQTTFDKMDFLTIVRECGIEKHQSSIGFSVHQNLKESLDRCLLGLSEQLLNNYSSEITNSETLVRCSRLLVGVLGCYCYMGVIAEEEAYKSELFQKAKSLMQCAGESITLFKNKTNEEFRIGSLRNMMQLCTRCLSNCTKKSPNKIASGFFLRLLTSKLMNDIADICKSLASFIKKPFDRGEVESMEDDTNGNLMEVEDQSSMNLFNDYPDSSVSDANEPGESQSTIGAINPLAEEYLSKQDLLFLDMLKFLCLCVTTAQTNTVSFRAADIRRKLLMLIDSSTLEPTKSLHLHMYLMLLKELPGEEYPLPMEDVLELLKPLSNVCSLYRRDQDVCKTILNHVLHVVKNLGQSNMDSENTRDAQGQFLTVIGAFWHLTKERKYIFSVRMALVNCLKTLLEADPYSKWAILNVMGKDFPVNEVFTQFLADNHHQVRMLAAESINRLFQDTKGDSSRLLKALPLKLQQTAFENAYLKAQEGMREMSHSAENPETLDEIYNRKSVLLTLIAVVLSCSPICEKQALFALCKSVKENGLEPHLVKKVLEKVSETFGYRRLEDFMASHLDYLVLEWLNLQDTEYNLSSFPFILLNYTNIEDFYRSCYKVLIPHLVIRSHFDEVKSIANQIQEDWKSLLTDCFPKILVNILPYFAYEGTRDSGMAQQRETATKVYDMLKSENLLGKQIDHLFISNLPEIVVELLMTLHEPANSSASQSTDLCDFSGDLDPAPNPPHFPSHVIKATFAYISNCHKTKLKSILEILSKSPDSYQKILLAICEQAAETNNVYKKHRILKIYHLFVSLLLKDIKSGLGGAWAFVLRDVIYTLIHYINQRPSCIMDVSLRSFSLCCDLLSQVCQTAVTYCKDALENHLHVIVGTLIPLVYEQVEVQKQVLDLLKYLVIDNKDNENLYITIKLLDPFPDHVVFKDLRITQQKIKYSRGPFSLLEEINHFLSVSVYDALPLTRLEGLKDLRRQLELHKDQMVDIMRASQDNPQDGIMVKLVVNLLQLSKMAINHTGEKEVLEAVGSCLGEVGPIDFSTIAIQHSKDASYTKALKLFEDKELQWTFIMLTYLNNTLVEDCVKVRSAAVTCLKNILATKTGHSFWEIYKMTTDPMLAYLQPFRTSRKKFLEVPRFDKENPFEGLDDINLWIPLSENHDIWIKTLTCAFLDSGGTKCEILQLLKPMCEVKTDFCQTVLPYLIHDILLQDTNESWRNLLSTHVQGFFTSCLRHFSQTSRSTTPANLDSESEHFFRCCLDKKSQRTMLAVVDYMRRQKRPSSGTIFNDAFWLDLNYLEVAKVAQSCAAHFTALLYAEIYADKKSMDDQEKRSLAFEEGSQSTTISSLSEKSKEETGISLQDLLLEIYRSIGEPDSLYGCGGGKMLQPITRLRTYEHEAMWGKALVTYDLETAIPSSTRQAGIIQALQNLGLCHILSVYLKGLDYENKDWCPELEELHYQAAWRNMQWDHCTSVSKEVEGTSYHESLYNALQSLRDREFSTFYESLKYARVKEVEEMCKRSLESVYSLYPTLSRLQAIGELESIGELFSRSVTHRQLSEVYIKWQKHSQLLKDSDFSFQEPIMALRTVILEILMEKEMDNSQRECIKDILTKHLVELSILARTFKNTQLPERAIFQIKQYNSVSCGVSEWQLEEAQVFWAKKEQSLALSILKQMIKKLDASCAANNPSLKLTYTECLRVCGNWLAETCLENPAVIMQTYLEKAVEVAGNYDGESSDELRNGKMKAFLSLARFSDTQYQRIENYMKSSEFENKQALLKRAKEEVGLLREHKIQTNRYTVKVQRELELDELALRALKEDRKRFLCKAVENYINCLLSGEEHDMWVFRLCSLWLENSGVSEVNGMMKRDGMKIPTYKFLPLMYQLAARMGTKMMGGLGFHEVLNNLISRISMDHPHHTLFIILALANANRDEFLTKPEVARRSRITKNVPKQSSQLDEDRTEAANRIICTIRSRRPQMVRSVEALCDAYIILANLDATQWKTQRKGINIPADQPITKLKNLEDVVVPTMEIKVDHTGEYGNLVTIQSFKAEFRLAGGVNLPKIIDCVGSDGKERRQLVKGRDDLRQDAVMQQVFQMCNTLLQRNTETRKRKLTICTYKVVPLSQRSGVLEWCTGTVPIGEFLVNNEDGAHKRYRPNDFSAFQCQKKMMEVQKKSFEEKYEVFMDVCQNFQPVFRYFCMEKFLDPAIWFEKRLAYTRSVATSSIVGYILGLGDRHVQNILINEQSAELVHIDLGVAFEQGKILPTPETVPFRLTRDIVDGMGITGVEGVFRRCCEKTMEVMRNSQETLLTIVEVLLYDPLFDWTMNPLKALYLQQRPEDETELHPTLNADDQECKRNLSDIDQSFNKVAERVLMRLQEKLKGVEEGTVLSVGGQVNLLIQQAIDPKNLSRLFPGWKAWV
Assay: ATM kinase assay (HTRF, phosphorylation of GST-cMyc-p53)
Type: biochemical
Details: 0.5 h; detected concentration 1 μm
Protocol: ATM enzyme (human) was added to the reaction solution containing 30 nM GST-cMyc-p53 and 10 μM Mg/ATP, and then 50 times the concentration of the tested compound (or reference compound AZD0156) dissolved in 100% DMSO was added to the final concentration of 10 μM/1 μM/0.1 μM/0.01 μM. […] The plate was then read in time resolved fluorescence mode and the homogeneous time resolved fluorescence (HTRF) signal was determined according to the equation: HTRF=10000×(Em665nm/Em620nm). […]
# binarize inhibition at 1 µM: threshold 80% inclusive, high side rule met, low side rule not met

Solved cases (5 shown):
{"compound": "CN(C)CCCOc1ccc(-c2ccc3nc4cccc(OC5CCOCC5)c4n3c2)cn1", "class-assignment": "rule met"}
{"compound": "CN(C)CCCOc1ccc(-c2ccc3nc4cccc(N5CCN(C)CC5)c4n3c2)cn1", "class-assignment": "rule not met"}
{"compound": "CN(C)CCCOc1ccc(-c2ccc3nc4cccc(CN5CCOCC5)c4n3c2)cn1", "class-assignment": "rule not met"}
{"compound": "C[C@@H]1CN(c2cccc3nc4ccc(-c5ccc(N6CCC(N(C)C)CC6)cc5)cn4c23)C[C@H](C)N1C", "class-assignment": "rule met"}
{"compound": "C[C@@H]1CN(c2cccc3nc4ccc(-c5ccc(OCCCN(C)C)nc5)cn4c23)C[C@H](C)N1C", "class-assignment": "rule met"}

Note: attention shifts to another entry.
# input Does "CN(C)C1CCN(c2ccc(-c3ccc4nc5cccc(C6=CCOCC6)c5n4c3)cn2)CC1" have a reported inhibition at 1 µM of at least 80%?
# output rule met

====

In this section we review reported inhibition at 1 µM values for a set of molecules.
Biological target: UniProt Q13315
Assay: ATM kinase assay (HTRF, phosphorylation of GST-cMyc-p53)
Format: biochemical
Conditions: 0.5 h; detected concentration 1 μm
Write down the numeric answer in % and omit the unit.

Worked cases, inhibition at 1 µM given:
{"molecule": "C[C@@H]1CN(c2cccc3nc4ccc(-c5ccc(N6CCC(N(C)C)CC6)c(Cl)c5)cn4c23)C[C@H](C)N1C [Example 47]", "inhibition at 1 µM (%)": 100}
{"molecule": "CN(C)CCCOc1ccc(-c2ccc3nc4cccc(N5CCOCC5)c4n3c2)cn1 [Example 6]", "inhibition at 1 µM (%)": 77}
{"molecule": "CN(C)CCCOc1ccc(-c2ccc3nc4cccc(NC5CCOCC5)c4n3c2)cn1 [Example 14]", "inhibition at 1 µM (%)": 48}
{"molecule": "C[C@@H]1CN(c2cccc3nc4ccc(-c5ccc(OCCCN(C)C)c(C(F)(F)F)c5)cn4c23)C[C@H](C)N1C [Example 53]", "inhibition at 1 µM (%)": 100}
{"molecule": "CN(C)CCCOc1ccc(-c2ccc3nc4cccc(-n5ccnc5)c4n3c2)cn1 [Example 9]", "inhibition at 1 µM (%)": 60}

Now look at this one.
# input Query (molecule): C[C@@H]1CN(c2cccc3nc4ccc(-c5ccc(N6CCC(N(C)C)CC6)c(C(F)(F)F)c5)cn4c23)C[C@H](C)N1C [Example 48] ; field requested: inhibition at 1 µM
# output 100

====

Test system: human breast cancer cell MDA-MB-468
Assay: MTT assay, growth of MDA-MB-468 cells
Format: cell-based
Conditions: Homo sapiens, MDA-MB-468, 168 h; single agent, 7 days, MTT
attribute-measured: IC50

Worked cases, IC50 given:
{"compound": "CN(C)CCCOc1ccc(-c2ccc3nc4cccc(N5CCN(C)CC5)c4n3c2)cc1 [Example 3]", "result": "330 nM"}
{"compound": "C[C@@H]1CN(c2cccc3nc4ccc(-c5ccc(OCCCN(C)C)c(F)c5)cn4c23)C[C@H](C)N1C [Example 50]", "result": "> 1000 nM"}

Now look at this one.
# input Query IC50 on human breast cancer cell MDA-MB-468 for CN(C)CCCOc1ccc(-c2ccc3nc4cccc(N5CCN(C)CC5)c4n3c2)cc1C(F)(F)F [Example 44]
# output > 100000 nM

====

Tested on: human breast cancer cell MDA-MB-468
Assay: MTT assay, growth of MDA-MB-468 cells
Format: cell-based
Conditions: Homo sapiens, MDA-MB-468, 168 h; single agent, 7 days, MTT
pIC50: −log10 of the molar value.
# binarize pIC50: threshold 6 inclusive, high side label 1, low side label 0

Solved cases (3 shown):
{"compound": "CN(C)CCCOc1ccc(-c2ccc3nc4cccc(-n5ccnc5)c4n3c2)cn1", "class-assignment": "label 0"}
{"compound": "CN(C)CCCOc1ccc(-c2ccc3nc4cccc(NC5CCN(C)CC5)c4n3c2)cn1", "class-assignment": "label 0"}
{"compound": "CN1CCN(c2ccc(-c3cccc4nc5ccc(N6CCOCC6)cc5n34)cn2)CC1", "class-assignment": "label 0"}

Note: attention shifts to another entry.
# input Does "C[C@@H]1CN(c2ncnc3nc4ccc(-c5ccc(N6CCC(N(C)C)CC6)cc5)nn4c23)C[C@H](C)N1C" have a reported pIC50 of at least 6?
# output label 0

====

System: human breast cancer cell MDA-MB-468
Assay: MTT assay, growth of MDA-MB-468 cells
Format: cell-based
Details: Homo sapiens, MDA-MB-468, 168 h; single agent, 7 days, MTT
pIC50: −log10 of the molar value.
# binarize pIC50: threshold 6 inclusive, high side condition met, low side condition not met

{"compound": "CN1CCN(c2cccc3nc4ccc(-c5ccc(N6CCC(N(C)C)CC6)c(C(F)(F)F)c5)cn4c23)CC1", "class-assignment": "condition met"}

Note: attention shifts to another entry.
# input Does "CN(C)C1CCN(c2ccc(-c3ccc4nc5cccc(N6CCC(N(C)C)CC6)c5n4c3)cc2)CC1" have a reported pIC50 of at least 6?
# output condition met

====

In this section we review reported IC50 values for a set of compounds.
Tested on: human breast cancer cell MDA-MB-468
Assay: MTT assay, growth of MDA-MB-468 cells
Type: cell-based
Conditions: Homo sapiens, MDA-MB-468, 168 h; single agent, 7 days, MTT

Worked cases, IC50 given:
{"compound": "CN(C)CCCOc1ccc(-c2ccc3nc4cccc(OC5CCN(C)CC5)c4n3c2)cn1", "result": "0.703 µM"}
{"compound": "CN(C)C1CCN(c2ccc(-c3ccc4nc5cccc(N6CCOCC6)c5n4c3)cn2)CC1", "result": "2.4 µM"}
{"compound": "C[C@@H]1CN(c2cccc3nc4ccc(-c5ccc(N6CCC(N(C)C)CC6)cc5)cn4c23)C[C@H](C)N1C", "result": "0.322 µM"}
{"compound": "C[C@@H]1CN(c2cccc3nc4ccc(-c5ccc(N6CCC(N(C)C)CC6)c(F)c5)cn4c23)C[C@H](C)N1C", "result": "0.055 µM"}

# input Query (compound): "CN(C)CCCOc1ccc(-c2ccc3nc4cccc(CN5CCOCC5)c4n3c2)cn1" ; field requested: IC50
# output > 10 µM
